Value source: BindingDB's records for patent US20250257051

# targetOrTestSystem: Non-receptor tyrosine-protein kinase TYK2 [556-888] (Homo sapiens, UniProt P29597)
# Construct: 556-888
# Sequence (P29597 556-888): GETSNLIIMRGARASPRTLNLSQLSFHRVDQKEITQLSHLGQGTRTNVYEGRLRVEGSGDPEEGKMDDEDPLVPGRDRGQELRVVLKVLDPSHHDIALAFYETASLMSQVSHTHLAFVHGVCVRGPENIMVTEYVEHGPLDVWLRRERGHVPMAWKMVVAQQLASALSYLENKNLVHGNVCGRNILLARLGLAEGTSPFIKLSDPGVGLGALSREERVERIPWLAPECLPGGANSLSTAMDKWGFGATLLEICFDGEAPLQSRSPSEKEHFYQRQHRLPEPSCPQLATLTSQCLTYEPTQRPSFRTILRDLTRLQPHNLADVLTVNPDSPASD
# experimentSummary: TYK2 JH2 Domain Binding Assay
pKd: −log10 of the molar value.
Known pKd of a selection of compounds
propertyName: pKd

>>> measuredresult("CNC(=O)c1cnc(N2CCNCC2C)nc1Nc1ccc(C2CC2)nc1 (centres undefined)")
4.72
>>> measuredresult("CC(C)(C)OC(=O)N1CCCN(c2ncc(C(N)=O)c(Nc3ccccc3S(C)(=O)=O)n2)CC1")
5.54
>>> measuredresult("CNC(=O)c1cnc(N2CCCC2)nc1Nc1ccc(C2CC2)nc1")
6.43
>>> measuredresult("COc1ccccc1Nc1nc(N2CCCNCC2)ncc1C(N)=O")
5.48
